tested on: bamyardgrass; assay: Test B flood test barnyardgrass; type: in vivo, Echinochloa crus-galli; details: Rate 500 g/ha; Pre-emergence; flood test species; scale 0 to 10 (0 no effect, 10 complete control)
Reported Barnyardgrass plant response rating by item:
Just the number, please.

Worked cases, Barnyardgrass plant response rating given:
compound: CC(C)N(C(=O)n1oc(=O)n(-c2ccsc2)c1=O)c1ccc(F)cc1 [Compound 272]
observation-type: Barnyardgrass plant response rating
quantitative-readout: 0

compound: CON=C(Cn1c(=O)on(C(=O)N(c2ccc(F)cc2)C(C)C)c1=O)C(F)(F)F [Compound 227]
observation-type: Barnyardgrass plant response rating
quantitative-readout: 0

compound: CSCCn1c(=O)on(C(=O)N(c2ccc(F)cc2)C(C)C)c1=O [Compound 314]
observation-type: Barnyardgrass plant response rating
quantitative-readout: 0

Query: Please report the measured Barnyardgrass plant response rating for Cc1ccccc1N(C(=O)n1oc(=O)n(-c2ccccc2C)c1=O)C(C)C [Compound 236]
Response: 0

Query: Please report the measured Barnyardgrass plant response rating for Cc1cccc(C)c1-n1c(=O)on(C(=O)N(C(C)C)C2C=CCCC2)c1=O (stereo not shown) [Compound 273]
Response: 3

Query: Please report the measured Barnyardgrass plant response rating for CC(C)N(C(=O)n1oc(=O)n(-c2cccnc2)c1=O)c1ccccc1 [Compound 235]
Response: 0

Query: Please report the measured Barnyardgrass plant response rating for CC(C)N(C(=O)n1oc(=O)n(Cc2nnsc2Cl)c1=O)c1ccccc1 [Compound 321]
Response: 0

Query: Please report the measured Barnyardgrass plant response rating for COCn1c(=O)on(C(=O)N(c2ccc(F)cc2)C(C)C)c1=O [Compound 293]
Response: 5

Query: Please report the measured Barnyardgrass plant response rating for CCOC(=O)C(C)N(C(=O)n1oc(=O)n(CC)c1=O)c1ccc(F)cc1 (stereo not shown) [Compound 248]
Response: 0

Query: Please report the measured Barnyardgrass plant response rating for CC(C)N(C(=O)n1oc(=O)n(CC(C)(C)C)c1=O)c1ccc(F)cc1 [Compound 246]
Response: 8

---

test system: wild oat; assay: Test B pre/postemergence wild oat; format: in vivo, Avena fatua; conditions: Rate 500 g/ha, Postemergence; scale 0 to 10, 0 no effect, 10 complete control
observation-type: Wild oats plant response rating
Just the number, please.

molecule: CCc1ccc(N(C(=O)n2oc(=O)n(-c3ccccc3C)c2=O)C(C)C)cc1
observation-type: Wild oats plant response rating
quantitative-readout: 0

Query: Please report the measured Wild oats plant response rating for "CC(C)N(C(=O)n1oc(=O)n(C2CCCC2)c1=O)c1ccccc1"
Response: 0

Query: Please report the measured Wild oats plant response rating for "CC(C)N(C(=O)n1oc(=O)n(-c2cnn(C)c2Cl)c1=O)c1ccc(F)cc1"
Response: 0

Query: Please report the measured Wild oats plant response rating for "CCN(Cc1ccccc1)C(=O)n1oc(=O)n(-c2c(C)cccc2C)c1=O"
Response: 0

Query: Please report the measured Wild oats plant response rating for "CC(C)N(C(=O)n1oc(=O)n(CC(C)(C)C)c1=O)c1ccc(F)cc1"
Response: 0

Query: Please report the measured Wild oats plant response rating for "CCCn1c(=O)on(C(=O)N(c2ccccc2)C(C)C)c1=O"
Response: 5

Query: Please report the measured Wild oats plant response rating for Cc1cccc(C)c1-n1c(=O)on(C(=O)N(C(C)C)C2C=CCCC2)c1=O (centres unmarked)
Response: 0

Query: Please report the measured Wild oats plant response rating for "CC(C)N(C(=O)n1oc(=O)n(C2CCCCC2)c1=O)c1ccccc1"
Response: 1

---

test system: rape; assay: Test B pre/postemergence rape; assay type: in vivo, Brassica napus; conditions: Rate 500 g/ha, Postemergence; scale 0 to 10, 0 no effect, 10 complete control
Reported Rape plant response rating by item:

Query: Please report the measured Rape plant response rating for "Cc1cccc(C(C)C)c1-n1c(=O)on(C(=O)N(c2ccc(Cl)cc2)C(C)C)c1=O"
Response: 0

Query: Please report the measured Rape plant response rating for "CC(C)N(C(=O)n1oc(=O)n(C2CCCC2)c1=O)c1ccccc1"
Response: 7

Query: Please report the measured Rape plant response rating for "CCc1ccc(N(C(=O)n2oc(=O)n(-c3ccccc3C)c2=O)C(C)C)cc1"
Response: 0

Query: Please report the measured Rape plant response rating for "CC(C)N(C(=O)n1oc(=O)n(-c2cccnc2)c1=O)c1ccc(F)cc1"
Response: 0

---

system: velvetleaf; experiment: Test B pre/postemergence velvetleaf; assay type: in vivo, Abutilon theophrasti; conditions: Preemergence, Rate 500 g/ha; scale 0 to 10, 0 is no effect, 10 is complete control
observation-type: Velvetleaf plant response rating
Just the number, please.

molecule: CC(C)N(C(=O)n1oc(=O)n(CC#N)c1=O)c1ccccc1 [Compound 434]
observation-type: Velvetleaf plant response rating
quantitative-readout: 0

Query: State Velvetleaf plant response rating (velvetleaf) of CCOC(=O)C=C(Cn1c(=O)on(C(=O)N(c2ccc(F)cc2)C(C)C)c1=O)OCC [Compound 396] .
Response: 0

Query: State Velvetleaf plant response rating (velvetleaf) of C=CC(CC)n1c(=O)on(C(=O)N(c2ccccc2)C(C)C)c1=O (centres unmarked) [Compound 455] .
Response: 6

Query: State Velvetleaf plant response rating (velvetleaf) of CC(C)N(C(=O)n1oc(=O)n(C(C)C#N)c1=O)c1ccc(F)cc1F (centres unmarked) [Compound 432] .
Response: 0

Query: State Velvetleaf plant response rating (velvetleaf) of CC(C)N(C(=O)n1oc(=O)n(C(C)C(=O)N(C)C)c1=O)c1ccc(F)cc1 (centres unmarked) [Compound 478] .
Response: 7

---

tested on: pigweed; test: Test B pre/postemergence pigweed; assay type: in vivo, Amaranthus retroflexus; conditions: Preemergence, Rate 250 g/ha; scale of 0 to 10 where 0 is no effect and 10 is complete control
Binary classification by Plant response rating, Redroot pigweed, with 3 as an inclusive lower bound for 1 (yes); all other cases are 0 (no).

compound: CC(C)N(C(=O)n1oc(=O)n(Cc2ccccc2)c1=O)c1ccc(F)cc1F [Compound 79]
class: 1 (yes)
--
compound: CC(C)N(C(=O)n1oc(=O)n(Cc2ccccc2)c1=O)c1ccc(F)cc1 [Compound 78]
class: 1 (yes)
--
compound: Cc1cccc(C(C)C)c1-n1c(=O)on(C(=O)N(c2ccc(F)cc2)C(C)C)c1=O [Compound 65]
class: 0 (no)

Query: Is reported Plant response rating, Redroot pigweed greater than or equal to 3 here: CC(C)N(C(=O)n1oc(=O)n(-c2c(Cl)cccc2Cl)c1=O)c1ccc(F)cc1 [Compound 19]
Response: 0 (no)

Query: Is reported Plant response rating, Redroot pigweed greater than or equal to 3 here: COc1ccccc1-n1c(=O)on(C(=O)N(c2ccc(F)cc2)C(C)C)c1=O [Compound 30]
Response: 1 (yes)

Query: Is reported Plant response rating, Redroot pigweed greater than or equal to 3 here: CCN(C(=O)n1oc(=O)n(-c2ccccc2OC)c1=O)C1CCCCC1 [Compound 29]
Response: 1 (yes)

Query: Is reported Plant response rating, Redroot pigweed greater than or equal to 3 here: CCCn1c(=O)on(C(=O)N(c2ccccc2)C(C)C)c1=O [Compound 92]
Response: 1 (yes)

Query: Is reported Plant response rating, Redroot pigweed greater than or equal to 3 here: Cc1cccc(C(C)C)c1-n1c(=O)on(C(=O)N(c2ccc(Cl)cc2)C(C)C)c1=O [Compound 64]
Response: 0 (no)

Query: Is reported Plant response rating, Redroot pigweed greater than or equal to 3 here: CC(C)N(C(=O)n1oc(=O)n(-c2cnn(C)c2Cl)c1=O)c1ccc(F)cc1 [Compound 97]
Response: 1 (yes)

---

test system: cocklebur; test: Test B pre/postemergence cocklebur; format: in vivo, Xanthium strumarium; conditions: Rate 500 g/ha, Postemergence; scale 0 to 10, 0 no effect, 10 complete control
Reported Cocklebur plant response rating by item:
Just the number, please.

Worked cases, Cocklebur plant response rating given:
compound: Cc1cccc(C)c1-n1c(=O)on(C(=O)N(C(C)C)C2C=CCCC2)c1=O (centres unmarked)
Cocklebur plant response rating: 0

compound: CC(C)N(C(=O)n1oc(=O)n(-c2cccc3c2CCCC3)c1=O)c1ccc(F)cc1
Cocklebur plant response rating: 5

compound: Cc1ccccc1-n1c(=O)on(C(=O)N(c2ccc(F)c(F)c2)C(C)C)c1=O
Cocklebur plant response rating: 2

Query: State Cocklebur plant response rating (cocklebur) of "CC(C)N(C(=O)n1oc(=O)n([C@H](C)c2ccccc2)c1=O)c1ccc(F)cc1F" .
Response: 0

Query: State Cocklebur plant response rating (cocklebur) of "CCCCc1ccc(N(C(=O)n2oc(=O)n(-c3ccccc3C)c2=O)C(C)C)cc1" .
Response: 0

Query: State Cocklebur plant response rating (cocklebur) of "Cc1cccc(C(C)C)c1-n1c(=O)on(C(=O)N(c2ccc(F)cc2)C(C)C)c1=O" .
Response: 0

Query: State Cocklebur plant response rating (cocklebur) of "CC(C)N(C(=O)n1oc(=O)n(C2CC2)c1=O)c1ccc(F)cc1" .
Response: 7

Query: State Cocklebur plant response rating (cocklebur) of "CON=C(Cn1c(=O)on(C(=O)N(c2ccc(F)cc2)C(C)C)c1=O)C(F)(F)F" .
Response: 3
